Data provenance: patent US11512042B2

experiment: UV absorbance spectrum in solution (λmax, λcrit, extinction coefficients); assay type: physicochemical
Quick reference for λmax among some compounds
Please reply with the bare figure in nm and do not write the unit itself.

Illustrative cases are given below, each with its answer.
| compound | metric | unitOfMeasure | readoutNumber |
| --- | --- | --- | --- |
| O=C(/C(=C\N1CCCN(/C=C(\C(=O)C(F)(F)F)c2ccccc2)c2ccccc21)c1ccccc1)C(F)(F)F | λmax | nm | 323 |
| CCCCCCC(=O)C1=CN(c2ccc(N3C=C(C(=O)CCCCCC)C(C)(C)CC3)cc2)CCC1(C)C [Compound 129, reference compound] | λmax | nm | 359 |
| CCCCC(CC)COC(=O)C(=O)/C(=C/N1CCc2cc(C(=O)OC)ccc21)c1ccccc1 (stereo not shown) | λmax | nm | 372 |

Now turn to the next compound.
q: Need λmax, item Cc1ccc(C(=O)/C(=C/N(c2ccccc2)c2ccccc2)c2ccccc2)cc1
a: 353
